Molecular target: PPM1F (Homo sapiens, UniProt P49593)
Sequence (P49593 1-454): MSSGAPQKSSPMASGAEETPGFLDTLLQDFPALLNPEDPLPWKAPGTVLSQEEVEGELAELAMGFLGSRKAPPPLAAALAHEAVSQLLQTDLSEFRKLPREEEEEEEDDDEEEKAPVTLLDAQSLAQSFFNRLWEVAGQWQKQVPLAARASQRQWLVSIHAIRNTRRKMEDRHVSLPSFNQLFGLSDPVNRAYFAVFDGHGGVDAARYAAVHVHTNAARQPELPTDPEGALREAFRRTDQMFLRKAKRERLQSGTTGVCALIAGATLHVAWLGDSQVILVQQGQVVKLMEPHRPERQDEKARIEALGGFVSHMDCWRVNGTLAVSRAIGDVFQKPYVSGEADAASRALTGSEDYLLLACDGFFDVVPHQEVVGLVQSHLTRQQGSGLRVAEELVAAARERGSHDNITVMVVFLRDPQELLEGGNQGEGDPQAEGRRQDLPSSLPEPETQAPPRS
Assay: pNPP hydrolysis phosphatase assay (selectivity panel)
Type: biochemical
Conditions: pNPP as substrate
Property measured: IC50 (µM)
One number for each entry, in µM.

// query IC50 value for entry `Nc1cc(-c2ccc(-c3ccc(O)c(O)c3)cc2)ccc1C(=O)O` 30.6

====

Target: PPM1B-R33K (Homo sapiens, UniProt O75688, R33K)
Construct: inferred from pET-28a vector and Ni-NTA purification
Sequence (O75688 whole entry R33K): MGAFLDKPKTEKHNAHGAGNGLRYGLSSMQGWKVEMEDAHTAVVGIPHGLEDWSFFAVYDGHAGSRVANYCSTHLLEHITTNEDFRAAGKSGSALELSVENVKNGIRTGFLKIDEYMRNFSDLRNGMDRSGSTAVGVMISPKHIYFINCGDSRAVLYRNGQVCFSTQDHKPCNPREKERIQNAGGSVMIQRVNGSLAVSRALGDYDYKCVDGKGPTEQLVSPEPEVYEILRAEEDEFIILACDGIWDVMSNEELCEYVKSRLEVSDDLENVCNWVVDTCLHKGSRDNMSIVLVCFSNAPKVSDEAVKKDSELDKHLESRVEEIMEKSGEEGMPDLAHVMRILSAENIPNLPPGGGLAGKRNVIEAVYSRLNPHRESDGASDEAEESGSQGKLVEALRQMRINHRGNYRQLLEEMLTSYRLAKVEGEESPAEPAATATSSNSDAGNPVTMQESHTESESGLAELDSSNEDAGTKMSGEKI
Assay: pNPP hydrolysis assay with PPM1B mutant
Details: pNPP substrate, pH 7.0, 37°C
Protocol: Escherichia coli BL21 strain was transformed with pET‐28a bacterial expression vector harbouring PPM1B and its mutants. ^17 The fusion proteins were induced to be expressed with 0.5 mM isopropyl‐β‐D‐thiogalactoside (IPTG) and purified from bacterial lysate by Ni‐NTA chromatographic matrices (Qiagen) and AKTA FPLC (GE Healthcare Life Sciences) using a Superdex Increase 200 column. The kinetic assays of PPM1B were carried out at 37°C in 0.1 M acetic acid buffer (50 mM Tris, 40 mM Mn^2+, pH 7.0). […]
Property measured: pIC50
One number for each entry, as −log10 of the molar value.

Please look up its pIC50: Nc1cc(-c2ccc(-c3ccc(O)c(O)c3)cc2)ccc1C(=O)O [HN252] 4.23

====

Protein target, amino acids: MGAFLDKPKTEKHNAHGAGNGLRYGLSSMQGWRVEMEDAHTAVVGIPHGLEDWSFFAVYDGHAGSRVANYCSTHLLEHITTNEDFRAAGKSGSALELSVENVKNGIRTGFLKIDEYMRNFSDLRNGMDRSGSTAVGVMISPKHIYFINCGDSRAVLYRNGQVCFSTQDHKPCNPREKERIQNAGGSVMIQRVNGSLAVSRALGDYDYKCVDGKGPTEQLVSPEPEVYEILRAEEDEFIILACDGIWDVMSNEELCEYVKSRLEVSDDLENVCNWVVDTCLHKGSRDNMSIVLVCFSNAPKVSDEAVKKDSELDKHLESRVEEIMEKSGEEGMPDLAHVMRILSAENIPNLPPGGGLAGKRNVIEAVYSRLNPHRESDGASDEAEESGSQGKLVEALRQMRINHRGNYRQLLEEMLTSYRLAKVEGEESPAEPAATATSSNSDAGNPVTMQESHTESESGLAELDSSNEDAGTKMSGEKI
Property measured: pKi
Answers are plain numbers, as −log10 of the molar value.

Record request: pKi value, item `Nc1cc(-c2ccc(-c3ccc(O)c(O)c3)cc2)ccc1C(=O)O` 6.28

====

Molecular target: PPM1G (Homo sapiens, UniProt O15355)
Sequence (O15355 1-546): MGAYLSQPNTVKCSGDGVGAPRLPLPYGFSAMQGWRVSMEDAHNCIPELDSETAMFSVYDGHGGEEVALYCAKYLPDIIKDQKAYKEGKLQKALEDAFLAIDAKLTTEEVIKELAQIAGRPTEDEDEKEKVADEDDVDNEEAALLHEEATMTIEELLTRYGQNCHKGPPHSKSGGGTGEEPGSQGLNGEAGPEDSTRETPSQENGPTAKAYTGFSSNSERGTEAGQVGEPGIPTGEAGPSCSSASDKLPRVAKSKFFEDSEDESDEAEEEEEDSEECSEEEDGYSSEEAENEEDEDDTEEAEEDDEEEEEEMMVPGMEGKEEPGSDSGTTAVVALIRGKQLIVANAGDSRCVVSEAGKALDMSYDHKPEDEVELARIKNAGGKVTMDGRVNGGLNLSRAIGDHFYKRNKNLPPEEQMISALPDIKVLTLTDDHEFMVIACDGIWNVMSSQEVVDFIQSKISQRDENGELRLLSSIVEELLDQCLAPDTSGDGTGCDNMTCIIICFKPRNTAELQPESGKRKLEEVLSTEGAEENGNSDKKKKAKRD
Property measured: pIC50
One number for each entry, as −log10 of the molar value.

I have this compound here, `Nc1cc(-c2ccc(-c3ccc(O)c(O)c3)cc2)ccc1C(=O)O` , and I need its recorded pIC50. 4.49

====

Target chain: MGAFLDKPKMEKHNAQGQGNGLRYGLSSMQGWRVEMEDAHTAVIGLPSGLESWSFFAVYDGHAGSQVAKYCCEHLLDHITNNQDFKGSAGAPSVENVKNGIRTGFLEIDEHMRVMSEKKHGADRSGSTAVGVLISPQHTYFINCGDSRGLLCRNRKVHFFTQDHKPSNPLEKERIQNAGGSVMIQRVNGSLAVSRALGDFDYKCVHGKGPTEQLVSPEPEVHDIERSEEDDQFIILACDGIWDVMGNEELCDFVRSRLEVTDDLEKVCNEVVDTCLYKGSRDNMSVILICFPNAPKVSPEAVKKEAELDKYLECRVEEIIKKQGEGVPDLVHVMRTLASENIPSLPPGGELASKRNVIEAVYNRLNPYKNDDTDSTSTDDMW
Property measured: pIC50
Answers are plain numbers, as −log10 of the molar value.

Entry under review: Nc1cc(-c2ccc(-c3ccc(O)c(O)c3)cc2)ccc1C(=O)O [HN252] . Reported pIC50? 6.14

====

biological target: PHLPP2 (Homo sapiens)
Sequence (Q6ZVD8 whole entry, species assumed): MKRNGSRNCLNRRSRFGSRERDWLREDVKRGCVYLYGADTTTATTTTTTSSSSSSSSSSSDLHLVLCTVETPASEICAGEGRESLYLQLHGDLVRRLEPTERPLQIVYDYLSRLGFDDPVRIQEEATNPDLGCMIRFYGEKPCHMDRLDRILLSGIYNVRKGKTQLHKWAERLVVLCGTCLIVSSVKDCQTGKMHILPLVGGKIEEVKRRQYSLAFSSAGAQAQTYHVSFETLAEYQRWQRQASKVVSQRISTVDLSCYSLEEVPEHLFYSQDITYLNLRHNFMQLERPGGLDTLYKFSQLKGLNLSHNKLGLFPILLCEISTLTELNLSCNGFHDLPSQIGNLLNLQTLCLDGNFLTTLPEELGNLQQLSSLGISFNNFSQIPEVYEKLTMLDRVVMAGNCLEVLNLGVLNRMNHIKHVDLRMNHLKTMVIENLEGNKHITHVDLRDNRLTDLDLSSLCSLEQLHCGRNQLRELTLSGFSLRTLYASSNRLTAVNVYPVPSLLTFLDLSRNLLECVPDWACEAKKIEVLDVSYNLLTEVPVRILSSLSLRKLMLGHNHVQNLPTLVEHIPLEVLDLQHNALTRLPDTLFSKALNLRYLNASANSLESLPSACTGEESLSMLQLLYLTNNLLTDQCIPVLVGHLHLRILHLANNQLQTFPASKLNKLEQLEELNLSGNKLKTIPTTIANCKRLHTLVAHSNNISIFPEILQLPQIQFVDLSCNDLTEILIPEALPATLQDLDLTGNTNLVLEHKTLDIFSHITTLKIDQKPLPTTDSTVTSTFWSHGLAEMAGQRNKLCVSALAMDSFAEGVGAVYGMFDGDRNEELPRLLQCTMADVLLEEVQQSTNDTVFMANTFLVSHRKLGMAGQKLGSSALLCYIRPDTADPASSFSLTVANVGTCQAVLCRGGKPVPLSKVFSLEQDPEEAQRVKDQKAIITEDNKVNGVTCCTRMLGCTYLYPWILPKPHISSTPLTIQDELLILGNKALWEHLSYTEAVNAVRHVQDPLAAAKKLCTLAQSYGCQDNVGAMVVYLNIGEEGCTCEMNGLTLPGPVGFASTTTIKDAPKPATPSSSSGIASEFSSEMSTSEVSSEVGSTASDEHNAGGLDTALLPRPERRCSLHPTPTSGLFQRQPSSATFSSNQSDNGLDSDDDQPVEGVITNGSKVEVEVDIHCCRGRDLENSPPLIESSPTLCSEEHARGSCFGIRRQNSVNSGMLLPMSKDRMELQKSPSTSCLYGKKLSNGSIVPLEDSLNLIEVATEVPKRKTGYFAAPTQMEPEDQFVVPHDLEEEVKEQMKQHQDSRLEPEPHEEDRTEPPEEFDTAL
Property measured: pIC50
One number for each entry, as −log10 of the molar value.

Any idea what pIC50 was measured for Nc1cc(-c2ccc(-c3ccc(O)c(O)c3)cc2)ccc1C(=O)O [HN252] ? 4.68

====

biological target: PPM1B-K170A (Homo sapiens, UniProt O75688, K170A); construct: inferred from pET-28a vector and Ni-NTA purification; assay: pNPP hydrolysis assay with PPM1B mutant; settings: pNPP substrate, pH 7.0, 37°C
Sequence (O75688 whole entry K170A): as the sequence (O75688 whole entry R33K) above, with K33R, K170A counted along it
Property measured: pIC50
Give bare numbers, as −log10 of the molar value.

Look up pIC50 with PPM1B-K170A (Homo sapiens, UniProt O75688, K170A) for this compound: `Nc1cc(-c2ccc(-c3ccc(O)c(O)c3)cc2)ccc1C(=O)O` 4.52

====

Sequence of the target: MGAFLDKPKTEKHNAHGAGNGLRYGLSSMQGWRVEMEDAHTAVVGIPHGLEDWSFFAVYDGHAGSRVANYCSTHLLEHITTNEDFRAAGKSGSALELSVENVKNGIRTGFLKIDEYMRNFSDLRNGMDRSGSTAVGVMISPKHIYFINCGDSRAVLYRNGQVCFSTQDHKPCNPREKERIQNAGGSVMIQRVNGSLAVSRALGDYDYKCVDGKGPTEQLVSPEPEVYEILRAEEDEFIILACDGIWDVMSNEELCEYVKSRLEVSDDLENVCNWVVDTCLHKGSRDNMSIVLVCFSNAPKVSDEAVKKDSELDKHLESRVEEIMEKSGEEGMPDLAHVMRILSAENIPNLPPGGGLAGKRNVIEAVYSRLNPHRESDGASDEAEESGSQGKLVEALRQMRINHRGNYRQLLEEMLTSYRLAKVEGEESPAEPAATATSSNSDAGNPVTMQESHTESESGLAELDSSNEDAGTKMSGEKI
Property measured: IC50
I'd appreciate it if you wrote the number followed by its unit.

Could you tell me which IC50 is on file for Nc1cc(-c2ccc(-c3ccc(O)c(O)c3)cc2)ccc1C(=O)O [HN252] ? 760 nM
